assay: Solubilization of hydrophobic organic compound in aqueous sodium monomenthyl glutarate (Na-MMG); details: MMG neutralised with 8.8% aqueous sodium bicarbonate; clear homogeneous solution
Each entry below lists one item and its recorded concentration of hydrophobic compound in clear, homogeneous solution in aqueous Na-MMG value.

Please review the entries below; each comes with its answer.
compound="CC(C)=CCCC(C)CCO (stereo not shown)" endpoint_value=~3.6%
compound="CCNC(=O)[C@@H]1C[C@H](C)CC[C@H]1C(C)C [WS-3, N-ethyl-p-menthane-3-carboxamide]" endpoint_value=~0.83%
compound="CC(C)=CCCC(C)CC#N (stereo not shown)" endpoint_value=~3.6%

Data request: What concentration of hydrophobic compound in clear, homogeneous solution in aqueous Na-MMG value was documented for this compound, CC(C)[C@@H]1CC[C@@H](C)C[C@H]1O ?
Data returned: ~2.5%

Data request: GET /values?readout=concentration of hydrophobic compound in clear, homogeneous solution in aqueous Na-MMG&item= Cc1ccc(C(C)C)cc1
Data returned: ~3.6%

Data request: Reported concentration of hydrophobic compound in clear, homogeneous solution in aqueous Na-MMG for C=C(C)[C@@H]1CC=C(C)C(=O)C1 : what is it?
Data returned: ~3.6%

Data request: Given the compound CCCCCCCCCCCC , what is its reported concentration of hydrophobic compound in clear, homogeneous solution in aqueous Na-MMG?
Data returned: ~2.5%
